# Species on record: Rattus norvegicus
# measurementNotes: DrugMatrix - Regimen: Daily Repeat
# Assay type: toxicity, organism-based, Sprague-Dawley
# Design: regimen Daily Repeat, gender Male, age 6-8 weeks
# particulars: in vivo, iv, 0 mg/kg, 72 h, tissue Blood, dose level Control, time 3 day, vehicle 100 % SALINE
readoutType: NEUTROPHIL (%)
Answers are plain numbers, in %.

molecule	experimentalValue
CN(N=O)C(=O)N[C@@H](C=O)[C@@H](O)[C@H](O)[C@H](O)CO	8.17
NCC[C@H](O)C(=O)N[C@@H]1C[C@H](N)[C@@H](O[C@H]2O[C@H](CN)[C@@H](O)[C@H](O)[C@H]2O)[C@H](O)[C@H]1O[C@H]1O[C@H](CO)[C@@H](O)[C@H](N)[C@H]1O	8
CC[C@@]1(O)C(=O)OCc2c1cc1n(c2=O)Cc2cc3ccccc3nc2-1	6.5

Next item in the queue.
Q: Identify NEUTROPHIL associated with the molecule CC1(C)S[C@@H]2[C@H](NC(=O)[C@H](NC(=O)N3CCNC3=O)c3ccccc3)C(=O)N2[C@H]1C(=O)O
Ans: 7
